pIC50: −log10 of the molar value.
This section presents pIC50 values reported for MAGL (Homo sapiens, UniProt Q99685) in the literature.
Parameter threshold = 8. Response is y when pIC50 meets or exceeds it, else n.

Consider the following illustrative entries.
1) O=C1CO[C@H]2CCN(C(=O)N3CC(OCc4ccc(S(F)(F)(F)(F)F)cc4)C3)C[C@H]2N1 ... y
2) O=C(c1ccc2c(c1)ncn2CC(F)(F)F)N1CC(C2CCN(C(=O)c3nccs3)CC2)C1 ... n
3) O=C1CO[C@H]2CCN(C(=O)N3CCC(Cc4ccc(C(F)(F)F)cc4)CC3)C[C@@H]2N1 (single isomer, unassigned) ... n
4) O=C(N1C[C@@H]2COc3cn[nH]c3[C@@H]2C1)N1CC2(CC(Cc3ccc(F)cc3F)C2)C1 (single isomer, unassigned) ... n
5) O=C1CO[C@H]2CCN(C(=O)N3CC(CNC(c4ccccc4)C(F)(F)F)C3)C[C@H]2N1 (stereo partly drawn) ... n
6) O=C(c1cn[nH]c1)N1CCN(C2CN(C(=O)c3ccc(-c4ccccc4)cc3)C2)CC1 ... n
7) Cc1cc(C(=O)N2CC(N3CCN(C(=O)c4cscn4)CC3)C2)ccc1-c1ccc(F)c(Cl)c1 ... y
8) O=C(c1ccc(-c2cccc(C(F)(F)F)c2)cc1)N1CCC(C2CN(C(=O)c3ccc[nH]3)C2)CC1 ... y

Reported pIC50 at or above 8? O=C1CO[C@H]2CCN(C(=O)N3CC(c4ccc(C5(CO)CC5)cc4)C3)C[C@H]2N1
n

Decide: is the reported value of pIC50 for CS(=O)(=O)c1cc(Cl)ccc1-c1ccc(C2CN(C(=O)CC[C@@H]3COC(=O)N3)C2)cc1 equal to or greater than 8?
y

Dear colleague, could you confirm whether O=C1CO[C@@H]2CCN(C(=O)N3CC4(CC(Cc5ccc(F)cc5F)C4)C3)C[C@H]2N1 (single isomer, unassigned) has pIC50 at or above 8?
n

Can Cc1ccc2oc(N3CCN(C(=O)N4CC(NC(=O)c5ccc(F)cc5Cl)C4)CC3)nc2n1 be said to have pIC50 at or above 8?
n

Evaluate O=C(c1ccc2[nH]c(Cc3ccccc3)nc2c1)N1CC(N2CCN(C(=O)c3cscn3)CC2)C1 : pIC50 at minimum 8?
n

Assess whether reported pIC50 for O=C1CO[C@H]2CCN(C(=O)N3CC(c4ccc(Oc5ccc(F)cc5)cn4)C3)C[C@H]2N1 sits at 8 or higher.
y

API: above_or_equal(metric=pIC50, cutoff=8) for item Cc1ccc(CCC2CN(C(=O)N3CC[C@@H]4OCC(=O)N[C@@H]4C3)C2)c(F)c1
y

Could you please find out whether O=C(c1cc2ccc(C(F)(F)F)cc2[nH]1)N1CC(N2CCN(C(=O)c3ccns3)CC2)C1 has pIC50 that meets 8 or exceeds it?
n

----------
Recorded pIC50 for compounds tested on UniProtKB Q99685, drawn from a number of studies.
Note: pIC50 values are expressed as the negative base-10 logarithm of concentration in M.

1) COc1cccc(C(=O)N2CCN3C[C@@](O)(c4ccc(Cl)cc4Cl)OC[C@@H]3C2)c1Cl ... 6.95
2) O=C1CO[C@H]2CCN(C(=O)N3CC(OCc4ccc(C(F)(F)F)cc4Cl)C3)C[C@@H]2N1 (single isomer, unassigned) ... 7.11
3) O=C(c1ccccc1)N1CCN(C2CN(C(=O)c3ccc(-c4ccc(Cl)c(C(F)(F)F)c4)cc3)C2)CC1 ... 7.08
4) O=C(c1ccc2c(ccn2-c2ccc(F)cn2)c1)N1CC(N2CCN(C(=O)c3nccs3)CC2)C1 ... 7.74
5) O=C(c1cc2cc(-c3ccccc3)cnc2o1)N1CC(N2CCN(C(=O)c3nccs3)CC2)C1 ... 6.71

Lab note: need pIC50 for COc1cccc(C(=O)N2CCN3C[C@@](O)(c4cc(Cl)cc(Br)c4)OC[C@@H]3C2)c1Cl on UniProtKB Q99685, anyone have it?
7.08

Write down the reported pIC50 of O=C1N[C@H](CCC(=O)N2CC3(CCN(Cc4ccc(C(F)(F)F)nc4)CC3)C2)CO1 , test system: UniProtKB Q99685.
6.29

----------
// read-out pIC50, gathered for MAGL (Homo sapiens) from published studies
The read-out pIC50 is expressed as -log10 of concentration in moles per litre.

Here are 3 compounds together with their reported answers.
1) O=C1CO[C@@H]2[C@@H](CN(C(=O)N3CC(c4ccc(CC(F)(F)F)cc4)C3)CC2(F)F)N1 (single isomer, unassigned) ... 6.19
2) O=C(c1ccccc1)N1CCN(C2CN(C(=O)c3ccc(-c4ccc(Cl)c(Cl)c4)cc3)C2)CC1 ... 7.83
3) O=C(c1ccc(-c2ccccc2)cc1)N1CC(N2CCN(C(=O)C3CC3(F)F)CC2)C1 (centres unmarked) ... 6.09

Here is another compound to look at.
// fetch MAGL (Homo sapiens) pIC50 for Cc1cc(C(=O)N2CCN(c3nc4nc(Cl)ccc4o3)CC2)cnc1OCC1CCO1 (centres unmarked)
5.76

----------
Dear all, I have gathered published IC50 values for MAGL (Homo sapiens, UniProt Q99685); the list follows.

Some molecules with known IC50 results, for comparison:
1) CC(C)(Oc1c(CN2CCN(C(=O)OC(C(F)(F)F)C(F)(F)F)CC2)cccc1C(F)(F)F)C(=O)O ... < 50 nM
2) CS(=O)(=O)Nc1ccn(C(=O)N2CCN(Cc3ccc(C(F)(F)F)cc3-c3nnco3)CC2)n1 ... 100 to 1000 nM

# evaluate next
Please look up its IC50: O=C(O)c1ccn(C(=O)N2C[C@H]3C[C@@H](OCc4cccc(C(F)(F)F)c4)C[C@H]3C2)n1
100 to 1000 nM

----------
Below: molecules with IC50 recorded for MAGL (Homo sapiens, UniProt Q99685) in separate published works.
Expressed in nM, but write only the number.

1. COc1cccc(C(=O)N2CCN3C[C@@H](c4ccc(C(F)(F)F)[nH]c4=O)OC[C@@H]3C2)c1Cl ... 780
2. CS(=O)(=O)CC1CN(c2ccc(C3CN(C(=O)CC[C@@H]4COC(=O)N4)C3)cc2)C1 ... 177
3. COC(=O)c1cc(Cl)ccc1Oc1ccc(C2CN(C(=O)CC[C@@H]3COC(=O)N3)C2)cn1 ... 14
4. O=C(c1ccc(-c2ccccc2)cc1)N1CC(C2CCN(C(=O)c3cscn3)CC2)C1 ... 258
5. O=C(c1ccc2c(-c3ccccc3)ncnc2c1)N1CC(N[C@H]2CCN(C(=O)c3cscn3)C2)C1 ... 1660

Data request, read-out IC50, for O=C(c1cc(F)cc(-c2ccccc2)c1)N1CC(N2CCN(C(=O)c3nccs3)CC2)C1
13

Looking for the measured IC50 of O=C1CO[C@H]2CCN(C(=O)N3CC(Oc4cccc(Br)c4Cl)C3)C[C@H]2N1 , can you help?
48

Recorded IC50 for O=C1CO[C@H]2CCN(C(=O)N3CCC(O)(C#Cc4ccccc4Cl)CC3)C[C@H]2N1 , please?
889

What measured IC50 goes with NC(=O)c1cc(-n2ccc3cc(C(=O)N4CC(N5CCN(C(=O)c6nccs6)CC5)C4)ccc32)ccc1F ?
16

Endpoint output: IC50 of O=C(c1cccc(-c2c[nH]nc2F)c1Cl)N1CCN2C[C@@H](c3ccc(F)c(Cl)c3)OC[C@@H]2C1 . Value?
1

State the recorded IC50 for this entry: CS(=O)(=O)c1cc(C2CN(C(=O)CC[C@@H]3COC(=O)N3)C2)ccc1-c1ccc(Cl)cc1F
19

So what's the measured IC50 for this one? O=C1COc2ccc(C(=O)N3CC(C(c4ccccc4)c4ccc(C(F)(F)F)cc4)C3)cc2N1 (centres unmarked)
85.3

Look up IC50 for this molecule: COc1ccccc1CC1CC2(C1)CN(C(=O)N1CC[C@@H]3OCC(=O)N[C@@H]3C1)C2
0.2

Can you look up the measured IC50 of CS(=O)(=O)c1ncc(C(F)(F)F)cc1-c1ccc(C2CN(C(=O)CC[C@@H]3COC(=O)N3)C2)cc1 for me?
3

Give its IC50 value. Item: COc1cccc(C(=O)N2CCN3C[C@H](c4ccc(F)c(-c5ccccc5)c4)OC[C@@H]3C2)c1Cl
575

----------
// compounds with IC50 on UniProt Q99685, multi-source literature
Express it in nM; write the number only.

Solved cases (2 shown):
1. O=C1CO[C@H]2CCN(C(=O)N3CCC(Oc4cc(C(F)(F)F)ccc4Cl)C3)C[C@H]2N1 (stereo partly drawn) ... 72
2. O=C(c1ccc2[nH]c3c(c2c1)CCCC3)N1CC(N2CCN(C(=O)c3cscn3)CC2)C1 ... 2700

Next up:
Query for UniProt Q99685: what IC50 does the record show for O=C1CO[C@H]2CCN(C(=O)N3CC(C(F)(c4ccc(F)cc4)c4ccc(F)cc4)C3)C[C@H]2N1 ?
419
